assay: Tmax in Balb/c mouse at 30 mg/kg, po; assay type: ADME, organism-based; parameters: dose 30 mg/kg, route oral; details: in vivo
assay-readout: Tmax

Entry CN1CCN(c2nc(C3=C(c4c[nH]c5ccccc45)C(=O)NC3=O)c3ccccc3n2)CC1 has what Tmax? 30 min

* * *

Sequence of the target: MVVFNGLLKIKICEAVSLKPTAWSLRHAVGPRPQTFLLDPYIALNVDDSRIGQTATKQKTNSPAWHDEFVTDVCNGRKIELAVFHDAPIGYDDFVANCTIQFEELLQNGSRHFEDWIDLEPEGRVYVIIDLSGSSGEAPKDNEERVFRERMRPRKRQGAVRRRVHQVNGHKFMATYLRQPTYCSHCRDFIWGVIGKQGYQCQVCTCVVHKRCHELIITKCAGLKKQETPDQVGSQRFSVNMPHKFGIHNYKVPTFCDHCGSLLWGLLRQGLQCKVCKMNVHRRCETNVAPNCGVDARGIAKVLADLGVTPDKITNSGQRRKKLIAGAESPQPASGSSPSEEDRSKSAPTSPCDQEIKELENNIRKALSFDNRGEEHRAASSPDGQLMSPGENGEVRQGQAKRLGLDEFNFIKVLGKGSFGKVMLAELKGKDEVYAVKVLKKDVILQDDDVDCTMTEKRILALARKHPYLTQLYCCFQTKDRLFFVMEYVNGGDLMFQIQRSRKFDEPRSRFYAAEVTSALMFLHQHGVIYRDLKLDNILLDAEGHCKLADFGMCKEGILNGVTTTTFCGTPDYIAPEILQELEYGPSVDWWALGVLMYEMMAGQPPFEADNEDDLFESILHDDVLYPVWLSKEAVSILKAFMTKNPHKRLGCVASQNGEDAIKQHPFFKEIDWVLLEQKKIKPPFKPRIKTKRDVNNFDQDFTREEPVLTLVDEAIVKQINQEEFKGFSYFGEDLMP
assay-readout: pIC50
FYI, pIC50 means -log10 of a concentration in mol per litre.

Reported pIC50, molecule CN1CCN(c2nc(C3=C(c4c[nH]c5ccccc45)C(=O)NC3=O)c3ccc(F)cc3n2)CC1 : ____ 7.82

Need pIC50 of CN1CCN(c2cc3ccccc3c(C3=C(c4c[nH]c5ccccc45)C(=O)NC3=O)n2)CC1 , thanks. 8.37

Sample CN1CCN(c2nc(C3=C(c4c[nH]c5c(Cl)cccc45)C(=O)NC3=O)c3ccccc3n2)CC1 — what was its pIC50? 7.72

Could you tell me which pIC50 is on file for CN1CCN(c2cc(C3=C(c4c[nH]c5ccccc45)C(=O)NC3=O)c3ccccc3n2)CC1 ? 7.14

Entry under review: CN1CCN(c2nc(C3=C(c4c[nH]c5ccc(Cl)cc45)C(=O)NC3=O)c3ccccc3n2)CC1 . Reported pIC50? 8.01

Would you mind telling me what pIC50 value was observed for CN1CCN(c2nc(C3=C(c4cn(C)c5ccccc45)C(=O)NC3=O)c3ccccc3n2)CC1 ? 7.60

Any idea what its pIC50 is? The molecule is CC(C)n1cc(C2=C(c3nc(N4CCN(C)CC4)nc4ccccc34)C(=O)NC2=O)c2ccccc21 7.96

* * *

target: Protein kinase C delta type (Homo sapiens); experiment: Inhibition of PKCdelta by scintillation proximity assay
Sequence (Q05655 whole entry): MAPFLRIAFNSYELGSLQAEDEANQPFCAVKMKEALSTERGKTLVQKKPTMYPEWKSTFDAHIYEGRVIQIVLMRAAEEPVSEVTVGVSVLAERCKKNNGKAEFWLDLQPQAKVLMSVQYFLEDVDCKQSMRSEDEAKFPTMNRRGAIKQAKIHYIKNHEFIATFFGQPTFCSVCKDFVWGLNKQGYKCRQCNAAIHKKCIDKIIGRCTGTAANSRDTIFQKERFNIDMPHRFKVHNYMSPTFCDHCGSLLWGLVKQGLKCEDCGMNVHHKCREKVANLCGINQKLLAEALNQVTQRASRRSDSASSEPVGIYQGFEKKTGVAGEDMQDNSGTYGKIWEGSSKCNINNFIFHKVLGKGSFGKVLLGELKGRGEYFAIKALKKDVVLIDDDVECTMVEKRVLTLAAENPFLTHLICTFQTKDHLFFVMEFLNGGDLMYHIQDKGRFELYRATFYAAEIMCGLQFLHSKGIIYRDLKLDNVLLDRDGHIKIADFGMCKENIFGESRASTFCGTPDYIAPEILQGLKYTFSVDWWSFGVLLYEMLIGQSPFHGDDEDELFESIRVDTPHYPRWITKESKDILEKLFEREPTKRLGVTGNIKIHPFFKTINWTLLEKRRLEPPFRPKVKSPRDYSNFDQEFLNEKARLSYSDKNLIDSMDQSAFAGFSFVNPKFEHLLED
What IC50 was measured for each of the following?
State just the number; it will be interpreted in nM.

What value of measured IC50 is listed for CN1CCN(c2cc(C3=C(c4c[nH]c5ccccc45)C(=O)NC3=O)c3ccccc3n2)CC1 ? 27

IC50 for CN1CCN(c2cc3ccccc3c(C3=C(c4c[nH]c5ccccc45)C(=O)NC3=O)n2)CC1 ? 1.8

Item Cc1cccc2nc(N3CCN(C)CC3)nc(C3=C(c4c[nH]c5ccccc45)C(=O)NC3=O)c12 has what recorded IC50? 3.2

For the molecule CN1CCN(c2nc(C3=C(c4c[nH]c5cccc(Cl)c45)C(=O)NC3=O)c3ccccc3n2)CC1 , what IC50 is on record? 93

Would you mind telling me what IC50 value was observed for CN1CCN(c2nc(C3=C(c4c[nH]c5c(Cl)cccc45)C(=O)NC3=O)c3ccccc3n2)CC1 ? 6.2

# query: IC50 of entry Cc1[nH]c2ccccc2c1C1=C(c2nc(N3CCN(C)CC3)nc3ccccc23)C(=O)NC1=O 25

Any idea what IC50 was measured for CN1CCN(c2nc(C3=C(c4c[nH]c5ccc(Cl)cc45)C(=O)NC3=O)c3ccccc3n2)CC1 ? 2.5

Please report the recorded IC50 for O=C1NC(=O)C(c2c[nH]c3ccccc23)=C1c1nc(N2CCNCC2)nc2ccccc12 . 0.4

* * *

test: Apparent permeability in human Caco2 cells; type: ADME, cell-based; settings: Caco-2
assay-readout: Papp (×10⁻⁶ cm/s)
Write the answer as a number in ×10⁻⁶ cm/s, unit excluded.

Quick check: Papp of CN1CCN(c2nc(C3=C(c4c[nH]c5ccccc45)C(=O)NC3=O)c3ccccc3n2)CC1 [SOTRASTAURIN] ? 4.5

* * *

assay: Fraction unbound in OFA rat plasma at 20 mg/kg, po; format: ADME, organism-based; parameters: dose 20 mg/kg, route oral
assay-readout: fraction unbound
Respond with the number and no other words.

Given CN1CCN(c2nc(C3=C(c4c[nH]c5ccccc45)C(=O)NC3=O)c3ccccc3n2)CC1 , state its recorded fraction unbound. 0.011

* * *

experiment: Oral bioavailability in Balb/c mouse at 30 mg/kg; format: ADME, organism-based; conditions: in vivo
assay-readout: bioavailability (%)
Give the value, in units of %, as a plain number.

Which value of bioavailability has been reported for CN1CCN(c2nc(C3=C(c4c[nH]c5ccccc45)C(=O)NC3=O)c3ccccc3n2)CC1 in the records? 19

* * *

assay: Volume of distribution at steady state in Balb/c mouse at 5 mg/kg, iv; format: ADME, organism-based; design: dose 5 mg/kg, route intravenous; conditions: in vivo, read-out: Vdss
assay-readout: Vd (L/kg)
Write down the numeric answer in L/kg and omit the unit.

Which measured Vd value corresponds to CN1CCN(c2nc(C3=C(c4c[nH]c5ccccc45)C(=O)NC3=O)c3ccccc3n2)CC1 [SOTRASTAURIN] ? 3.1

* * *

test: Tmax in OFA rat at 20 mg/kg, po; format: ADME, organism-based; parameters: dose 20 mg/kg, route oral; conditions: in vivo
assay-readout: Tmax (min)
// return numeric value only (unit: min, not printed)

# input molecule: Cn1cc(C2=C(c3nc(N4CCNCC4)nc4ccccc34)C(=O)NC2=O)c2ccccc21 ; wanted: its Tmax 30

* * *

test: Elimination half life in Balb/c mouse at 5 mg/kg, iv; format: ADME, organism-based; design: dose 5 mg/kg, route intravenous; conditions: in vivo, read-out: beta t1/2 (converted)
assay-readout: half-life (min)
Numbers only here, please. The scale is min.

I would be grateful if you could share the reported half-life for CN1CCN(c2nc(C3=C(c4c[nH]c5ccccc45)C(=O)NC3=O)c3ccccc3n2)CC1 . 150

* * *

experiment: Volume of distribution at steady state in cynomolgus monkey at 5 mg/kg, iv; type: ADME, organism-based, Macaca fascicularis; set-up: dose 5 mg/kg, route intravenous; details: in vivo, read-out: Vdss
assay-readout: Vd
In your response, the unit should come after the numeric value.

Request the reported Vd associated with CN1CCN(c2nc(C3=C(c4c[nH]c5ccccc45)C(=O)NC3=O)c3ccccc3n2)CC1 [SOTRASTAURIN] 5.9 L/kg

* * *

assay: Tmax in cynomolgus monkey at 20 mg/kg, po; type: ADME, organism-based, Macaca fascicularis; set-up: dose 20 mg/kg, route oral; conditions: in vivo
assay-readout: Tmax (h)
Your answer should be a plain number; it is taken to be in h.

Quick check: Tmax of CN1CCN(c2nc(C3=C(c4c[nH]c5ccccc45)C(=O)NC3=O)c3ccccc3n2)CC1 ? 8

* * *

assay-readout: IC50

What value of IC50 on Protein kinase C alpha type (Homo sapiens, UniProt P17252) does Cn1cc(C2=C(c3nc(N4CCNCC4)nc4ccccc34)C(=O)NC2=O)c2ccccc21 have? 1.4 nM

Request - read-out IC50 | tested on Protein kinase C alpha type (Homo sapiens, UniProt P17252) | compound CN1CCN(c2nc(C3=C(c4c[nH]c5ccccc45)C(=O)NC3=O)c3cc(C(C)(C)C)ccc3n2)CC1 > 316 nM

Which measured IC50 belongs to Cc1cccc2nc(N3CCN(C)CC3)nc(C3=C(c4c[nH]c5ccccc45)C(=O)NC3=O)c12 , tested on Protein kinase C alpha type (Homo sapiens, UniProt P17252)? 3.6 nM

Report IC50 for CN1CCN(c2cc(C3=C(c4c[nH]c5ccccc45)C(=O)NC3=O)c3ccccc3n2)CC1 tested on Protein kinase C alpha type (Homo sapiens, UniProt P17252). 3.6 nM

Find the measured IC50: item CN1CCN(c2nc(C3=C(c4c[nH]c5ccc(Cl)cc45)C(=O)NC3=O)c3ccccc3n2)CC1 , target or system Protein kinase C alpha type (Homo sapiens, UniProt P17252). 8.3 nM

Record CN1CCN(c2nc(C3=C(c4c[nH]c5ccccc45)C(=O)NC3=O)c3ccc(F)cc3n2)CC1 : what is its IC50 with Protein kinase C alpha type (Homo sapiens, UniProt P17252)? 4.5 nM

# get_value(readout= IC50, system= Protein kinase C alpha type (Homo sapiens, UniProt P17252)) for Cc1cccc2c(C3=C(c4c[nH]c5ccccc45)C(=O)NC3=O)nc(N3CCN(C)CC3)nc12 235 nM

Tell me reported IC50 for Cc1[nH]c2ccccc2c1C1=C(c2nc(N3CCN(C)CC3)nc3ccccc23)C(=O)NC1=O , tested with Protein kinase C alpha type (Homo sapiens, UniProt P17252). 63 nM

Given the entry CN1CCN(c2nc(C3=C(c4c[nH]c5cc(Cl)ccc45)C(=O)NC3=O)c3ccccc3n2)CC1 , what IC50 was observed with Protein kinase C alpha type (Homo sapiens, UniProt P17252)? 8.5 nM

Item CC(C)c1ccc2nc(N3CCN(C)CC3)nc(C3=C(c4c[nH]c5ccccc45)C(=O)NC3=O)c2c1 with Protein kinase C alpha type (Homo sapiens, UniProt P17252) - IC50? > 316 nM
